pIC50: −log10 of the molar value.
pIC50 for High affinity nerve growth factor receptor (Homo sapiens, UniProt P04629), merged from several publications.

Compound	pIC50
Cc1cc(C)cc(CNc2ccc(Cc3c[nH]c4ncncc34)c(F)n2)c1	≥ 5.00
COCCN1C[C@@H](NC(=O)Nc2c(C)c(OC[C@H]3COC(C)(C)O3)nn2-c2ccccc2)[C@H](c2ccc(F)c(F)c2)C1	> 7.00
COc1cc(Cc2c[nH]c3ncc(C(=O)O)cc23)c(F)cc1OCc1nc2ccccc2[nH]1	≥ 5.00
CCOc1nn(-c2ccccc2)c(NC(=O)N[C@@H]2CN(c3ccnc(OC)c3)C[C@H]2c2ccccc2)c1C	6.00 to 7.00
COCCOc1cc2nccc(Oc3ccc(NC(=O)c4cn(C)c(=O)n(-c5ccc(F)cc5)c4=O)c(F)c3)c2c2c1OCCO2	> 7.30
COc1cc(-c2cn3ncc4c3nc2NCc2cc(F)cnc2O[C@@H](C)CNC4=O)ccn1	< 5.00
CCn1cc(-c2nn(-c3ccccc3)c(NC(=O)N[C@@H]3CN(CCOC)C[C@H]3c3ccc(F)c(F)c3)c2C)cn1	> 7.00
COCCN1C[C@@H](NC(=O)Nc2c(C)c(-c3ccncc3)nn2-c2ccccc2)[C@H](c2ccc(F)c(F)c2)C1	> 7.00
C[C@H]1CNC(=O)c2cnn3ccc(nc23)N2C[C@H]3C[C@H]3[C@@H]2c2cc(F)cn1c2=O (single isomer, unassigned)	> 7.00
